PROCEDURE_DETAILS: qHTS for Inhibitors of human tyrosyl-DNA phosphodiesterase 1 (TDP1): qHTS in cells in presence of CPT; also: nearly all actives have a fitted effect of over 55% in size
TEST_CONTEXT: chicken DT40 Tdp1-/-;hTDP1 cells + 20 nM CPT, ATP luminescence, 48 h; series mostly up to 46.2 µM
In all, about 420,000 compounds went through this assay and about 50,000 (12%) were called active. About 26% were inconclusive and are not listed. Calls follow the shape of the dose curve; as a rule, active = well fitted inhibition curve with a large enough effect; inconclusive = small, poorly fitted or top-dose-only effect; inactive = flat fitted curve, though single readings scatter. The sample as a whole holds a higher share of actives than the screen did.
Outcome codes: active, inactive

{"MOLECULE": "Nc1nc(Nc2ccccc2)nc(NCCO)c1[N+](=O)[O-]", "LABEL": "inactive"}
{"MOLECULE": "COCCNC(=S)Nc1cc(S(=O)(=O)N2CCOCC2)ccc1N1CCCCC1", "LABEL": "active"}
{"MOLECULE": "CCOC(=O)Nc1ccccc1N1C(=O)c2ccccc2C1=O", "LABEL": "inactive"}
{"MOLECULE": "COc1ccc(CNC(=O)CN2C(=O)c3ccccc3S2(=O)=O)cc1", "LABEL": "inactive"}
{"MOLECULE": "COc1ccc(C2/C(=C(/O)c3ccc(OC(C)C)cc3)C(=O)C(=O)N2CCCN2CCOCC2)cc1 (stereo not given)", "LABEL": "inactive"}

---

PROCEDURE_DETAILS: qHTS for Inhibitors of human tyrosyl-DNA phosphodiesterase 1 (TDP1): qHTS in cells in presence of CPT; also: nearly all actives have a fitted effect of over 55% in size
TEST_CONTEXT: chicken DT40 Tdp1-/-;hTDP1 cells + 20 nM CPT, ATP luminescence, 48 h; series mostly up to 46.2 µM
The whole screen tested about 420,000 compounds, of which about 50,000 (12%) were called active. Not shown: some 26% with an inconclusive outcome. The call rests on the fitted dose curve; in most records, active means well fitted inhibition curve with a large enough effect; inconclusive means small, poorly fitted or top-dose-only effect; inactive means flat fitted curve, though single readings scatter. The sample holds actives, similar compounds and a random draw of the others, so the mix is not that of the screen.
Outcomes: yes (active), no (inactive)

{"MOLECULE": "CCOC(=O)Cn1c2c(c(-c3ccccc3OC)cc1=O)CCCC2", "LABEL": "no"}
{"MOLECULE": "Cc1nc2cc(NC(=O)NCc3ccccc3)ccc2o1", "LABEL": "no"}
{"MOLECULE": "Cc1cc(NC(C)C)n2c(nc3ccccc32)c1C#N", "LABEL": "no"}
{"MOLECULE": "CC(=O)Nc1ccc(OC(=O)COc2ccc(Br)cc2)cc1", "LABEL": "no"}
{"MOLECULE": "Cc1c(C(=O)OCC(=O)N2CCCC2=O)oc2ccccc12", "LABEL": "no"}
{"MOLECULE": "Cc1ccc(S(=O)(=O)Nc2ccccc2CNc2c(C)n(C)n(-c3ccccc3)c2=O)cc1", "LABEL": "no"}
{"MOLECULE": "O=C1OCCOC2CCCc3oc(-c4ccccc4)c1c32 (configuration not stated)", "LABEL": "no"}
{"MOLECULE": "O=C(Oc1ccc(F)cc1)N1CCOCC1", "LABEL": "no"}
{"MOLECULE": "O=C(NCc1ccccc1Cl)C1CCC(CNc2c(N3CCCCC3)c(=O)c2=O)CC1 (configuration not stated)", "LABEL": "no"}
{"MOLECULE": "CCc1ccc(NC(=O)C2CCCN2S(=O)(=O)c2ccc3nc(-c4ccccc4)[nH]c3c2)cc1 (configuration not stated)", "LABEL": "yes"}
{"MOLECULE": "CCc1ccc2oc(-c3ccc(NC(=O)c4cc5ccccc5o4)cc3)nc2c1", "LABEL": "no"}
{"MOLECULE": "Cc1ccccc1-c1nc2cc(NC(=O)c3cccc(OCCC(C)C)c3)ccc2o1", "LABEL": "yes"}
{"MOLECULE": "COC(=O)c1ccc(-c2nc3cc(NC(C)=O)ccc3o2)cc1", "LABEL": "no"}
{"MOLECULE": "Cc1nc2sccn2c(=O)c1S(=O)(=O)NCCc1ccccc1", "LABEL": "no"}
{"MOLECULE": "Cc1noc(C)c1C(=O)NCC1COc2ccccc2O1 (configuration not stated)", "LABEL": "no"}
{"MOLECULE": "O=C(Oc1cc(OC(=O)c2ccccc2)c2c(c1)OC(c1ccc(OC(=O)c3ccccc3)c(OC(=O)c3ccccc3)c1)[C@@H](OC(=O)c1ccccc1)C2)c1ccccc1 (some centres not stated)", "LABEL": "no"}
{"MOLECULE": "COCCN(C(=O)CCC(=O)Nc1nccs1)C(C(=O)NCCC(C)C)c1ccc(F)cc1 (configuration not stated)", "LABEL": "no"}
{"MOLECULE": "CN(CCOc1ccccc1)C(=O)c1cc(-c2ccco2)nc2ccccc12", "LABEL": "yes"}
{"MOLECULE": "CC(=O)Nc1ccc(-c2nc3ccccc3o2)cc1", "LABEL": "no"}
{"MOLECULE": "O=C(Nc1ccc(-c2nc3cc(NC(=O)c4ccccc4Cl)ccc3o2)cc1)c1ccccc1Cl", "LABEL": "yes"}
{"MOLECULE": "O=C(NC1CC(=O)N(c2ccccc2)C1)c1ccco1 (configuration not stated)", "LABEL": "no"}
{"MOLECULE": "C=C(C)COc1ccc(-c2nc(N)ncc2-c2ccccc2OC)c(O)c1", "LABEL": "no"}
{"MOLECULE": "Cn1c(Nc2ccccc2)cc(=O)n(C)c1=O", "LABEL": "no"}
{"MOLECULE": "COc1cc(C2CC(=O)Oc3cc(OC)c(OC)c(OC)c32)cc(OC)c1OC (configuration not stated)", "LABEL": "no"}
{"MOLECULE": "COc1ccc(N2CCN(c3ccc([N+](=O)[O-])cc3Cl)CC2)cc1", "LABEL": "no"}
{"MOLECULE": "CCC(=O)Nc1ccc(Nc2nc(Cl)nc(Nc3ccc(NC(=O)CC)cc3)n2)cc1", "LABEL": "no"}
{"MOLECULE": "CCOc1ccc(-c2nc(N)ncc2-c2ccccc2OC)c(O)c1", "LABEL": "yes"}
